Origin of values: paper PMC10891134

# tgt: the molecule itself
# assay_remarks: SEC; analytical size-exclusion chromatography of the purified RutR proteins; elution as dimer; column and buffer not given
Overview of reported stoichiometry N across a group of proteins:

Sample records with stoichiometry N:
protein	stoichiometry N
RutR AcK11 (site-specifically K11-acetylated RutR) (natural protein, E. coli, acetyl-lysine at 11, RutR of Escherichia coli; rutR gene as in m1 with an amber stop codon at K11 for acetyl-L-lysine; Same rutR construct as m1 apart from the amber codon; constructs are in Supplementary Data 4; source: E. coli BL21 (DE3), genetic code expansion (acetyl-L-lysine at an amber codon), purified) MTQGAVKTTGKRSRAVSAKKKAILSAALDTFSQFGFHGTRLEQIAELAGVSKTNLLYYFPSKEALYIAVLRQILDIWLAPLKAFREDFAPLAAIKEYIRLKLEVSRDYPQASRLFCMEMLAGAPLLMDELTGDLKALIDEKSALIAGWVKSGKLAPIDPQHLIFMIWASTQHYADFAPQVEAVTGATLRDEVFFNQTVENVQRIIIEGIRPR	2
RutR AcK95 (site-specifically K95-acetylated RutR) (natural protein, E. coli, acetyl-lysine at 95, RutR of Escherichia coli; rutR gene as in m1 with an amber stop codon at K95 for acetyl-L-lysine; Same rutR construct as m1 apart from the amber codon; constructs are in Supplementary Data 4; source: E. coli BL21 (DE3), genetic code expansion (acetyl-L-lysine at an amber codon), purified) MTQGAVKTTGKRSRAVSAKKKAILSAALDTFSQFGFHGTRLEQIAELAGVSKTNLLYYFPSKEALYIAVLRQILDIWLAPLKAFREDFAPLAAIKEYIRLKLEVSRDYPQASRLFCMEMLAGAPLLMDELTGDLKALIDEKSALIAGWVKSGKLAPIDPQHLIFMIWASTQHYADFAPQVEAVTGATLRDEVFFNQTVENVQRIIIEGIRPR	2

Turning now to a further protein:
INPUT: Entry RutR AcK150 (site-specifically K150-acetylated RutR) (natural protein, E. coli, acetyl-lysine at 150, RutR of Escherichia coli; rutR gene as in m1 with an amber stop codon at K150 for acetyl-L-lysine; Same rutR construct as m1 apart from the amber codon; constructs are in Supplementary Data 4; source: E. coli BL21 (DE3), genetic code expansion (acetyl-L-lysine at an amber codon), purified) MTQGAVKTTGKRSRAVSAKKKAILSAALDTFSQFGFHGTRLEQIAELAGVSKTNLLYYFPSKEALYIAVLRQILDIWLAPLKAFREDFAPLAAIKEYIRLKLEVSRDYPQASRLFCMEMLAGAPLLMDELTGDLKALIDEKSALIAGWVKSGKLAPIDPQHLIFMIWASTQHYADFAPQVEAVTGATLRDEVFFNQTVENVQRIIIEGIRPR needs its stoichiometry N filled in; supply it.
OUTPUT: 2
